Listing: TGI of selected molecules
# System: KM20L2 colon
# protocol.summary: NCI tumour cell line growth inhibition, 48 h
Write it as a number; the unit µM goes unstated.

Examples from the recorded data:
- molecule: "COC(=O)[C@@]12OC[C@]34C([C@@H](O)C1O)[C@@]1(C)CC(=O)C(O)=C(C)C1C[C@H]3OC(=O)[C@H](OC(=O)/C=C(/c1ccccc1)C(F)(F)F)[C@H]42 (stereo partly drawn)"
  measured.value: 14
- molecule: "CC1=C(C(=O)Nc2ccc([N+](=O)[O-])cc2)C(c2ccccc2O)C(C(=O)Nc2ccc([N+](=O)[O-])cc2)=C(C)N1"
  measured.value: 35.8
- molecule: "COc1cc(C=O)c(-c2cc3c(cc2C2(C)OCCS2)OCO3)c(OC)c1OC (stereo not drawn)"
  measured.value: 9.17
- molecule: "O=C(O)C(C(=O)C(=O)C(C(=O)O)c1ccc(Cl)cc1)c1ccc(Cl)cc1 (stereo not drawn)"
  measured.value: 11.3
- molecule: "C=CC[N+](CCO)(CCO)CCCCCCCCCCCCCCCCCC"
  measured.value: 17.1
- molecule: "CSc1nc(SC)c2c(C(N)=S)[nH]nc2n1"
  measured.value: 85
- molecule: "CC(=O)OC1CC[C@@]2(C)C(CC[C@]3(C)C2CC=C2[C@@H]4CC(C)(C)CCC4(C)CCC23C)[C@@]1(C)C(=O)O (stereo partly drawn)"
  measured.value: 36.7

Notebook: C=C1C(=O)O[C@@H]2OC3(C)CCC4C(C)CCC1C42OO3 (stereo partly drawn) , TGI read as 24.1

----------
Reported TGI values for a set of compounds
# Tested on: LOX IMVI melanoma
# protocol.summary: NCI tumour cell line growth inhibition, 48 h

- compound: "COc1ccc(NCc2cnc3nc(N)nc(N)c3c2C)cc1"
  TGI: "> 100 µM"

Value of TGI reported for the compound CC(C)=CCCC1(Sc2ccccc2)C(=O)OCC1C=C(C)C (stereo unspecified) is 30.1 µM

Please fill in: TGI reported for O=C(CCc1ccc(O)c(O)c1)NCCc1ccc(O)c(O)c1 = > 100 µM

Memo: CC(C)(c1ccc(Oc2ccc(C#N)c(C#N)c2)cc1)c1ccc(Oc2ccc(C#N)c(C#N)c2)cc1 , reported TGI: > 100 µM

Consider COc1ccc(/C(Cl)=C(\C=O)c2ccccc2)cc1OC . Its measured TGI is > 100 µM

----------
Measured log10 of TGI of individual entries
# Tested on: T-47D breast
# protocol.summary: NCI tumour cell line growth inhibition, 48 h
On a log10 scale: recorded TGI, unit µM.

See these solved cases before continuing.
- molecule: "O=c1oc2c/c(=C\\c3ccccc3)c(=O)c3cccc1c3-2"
  target.entity: "T-47D breast"
  log10 of TGI: 1.74
- molecule: "COc1cc(F)cc([C@@H](CO)NC(=O)[C@@H](C)N2Cc3ccc(-c4nc(NC5CCOCC5)ncc4Cl)cc3C2=O)c1"
  target.entity: "T-47D breast"
  log10 of TGI: 1.52
- molecule: "COc1ccc2c3c(c4ccccc4cc13)C(=O)N(CCN(C)CCN)C2=O"
  target.entity: "T-47D breast"
  log10 of TGI: 1.10
- molecule: "N#Cc1ccc(C2C3=C(CCCC3=O)OC3=C2C(=O)c2ccccc2C3=O)cc1 (centres undefined)"
  target.entity: "T-47D breast"
  log10 of TGI: 0.35
- molecule: "CSc1n(Cc2ccc3ccccc3c2)c(C)c[n+]1Cc1ccc2ccccc2c1"
  target.entity: "T-47D breast"
  log10 of TGI: 0.32

// field: log10 of TGI; key: COc1ccc(S(=O)(=O)Nc2ccc(-c3csc(N4C(=O)/C(=C/c5ccccc5)N=C4c4ccccc4)n3)cc2)cc1Cl ; value = 1.79

----------
# Tested on: SN12C renal
# protocol.summary: NCI tumour cell line growth inhibition, 48 h
measurement.type: TGI

Example results:
- compound: "COc1ccc2c(c1)CC1(O)COc3cc(OC)ccc3C1O2 (stereo not given)"
  TGI: "> 100 µM"
- compound: "CCOC(=O)c1nc2cc(C(F)(F)F)ccc2nc1Nc1ccc(F)cc1"
  TGI: "> 100 µM"
- compound: "COc1cc(C2c3cc4c(cc3OC3(OC)COC(=O)C23)OCO4)cc(OC)c1OC (stereo not given)"
  TGI: "> 80.5 µM"
- compound: "COc1ccc(N2C(N)=C(C#N)C(C#N)(C#N)C2c2cccc([N+](=O)[O-])c2)cc1 (stereo not given)"
  TGI: "30.8 µM"
- compound: "CCO/C=C1\\N=C(C(Cl)c2ccccc2)OC1=O (stereo not given)"
  TGI: "> 100 µM"
- compound: "CC(=O)Nc1ccc(-c2nnc(SCC(=O)Nc3cccc([N+](=O)[O-])c3)o2)cc1"
  TGI: "33.2 µM"
- compound: "C=CC[N+](CCO)(CCO)CCCCCCCCCCCCCCCCCC"
  TGI: "24 µM"
- compound: "O=C1c2ccccc2-c2nnc(-c3ccc(Cl)cc3)cc21"
  TGI: "> 10 µM"

Notebook: NC(=O)C[C@H](NC(=O)C1(NC(=O)[C@H](Cc2ccc(CP(=O)(O)O)cc2)NC(=O)C(=O)O)CCCCC1)C(=O)NCCCc1cccc2ccccc12 , TGI read as > 10 µM

GET /value?item= CC1(C)N=C(N)N=C(N)N1c1ccc(CCc2ccc(Cl)cc2S(=O)(=O)F)c(Cl)c1 &field=TGI returns > 100 µM

----------
# Tested on: COLO 205 colon
# protocol.summary: NCI tumour cell line growth inhibition, 48 h
The compounds listed here are annotated with their TGI.

- compound: "C/C(CC(=O)Nc1ccc(Cl)cc1)=N\\NC(=O)C[n+]1ccccc1"
  TGI: "> 100 µM"
- compound: "O=C(NC12CC3CC(CC(C3)C1)C2)C(=O)c1c[nH]c2ccc([N+](=O)[O-])cc12"
  TGI: "> 100 µM"
- compound: "N#C/C(=C\\Nc1ccccn1)C(=O)c1ccco1"
  TGI: "> 100 µM"
- compound: "C[C@]1(C(=O)O)N[C@H](C(=O)O)CS1"
  TGI: "> 1000 µM"
- compound: "C[C@H](CN1CC(=O)NC(=O)C1)N1CC(=O)NC(=O)C1"
  TGI: "> 72.8 µM"
- compound: "O=C(NCCN1CCC(O)CC1)c1cc2c(o1)C(=O)c1ccccc1C2=O"
  TGI: "0.228 µM"

// sample O=C1C(Cl)=C(Nc2cccc(O)c2)C(=O)N1Cc1ccc(Cl)cc1 , its TGI was 20.8 µM

For reference, reported TGI for NC(=O)C(=Cc1ccc(CP(=O)(O)O)cc1)C(N)=O stands at > 100 µM

TGI reported for this compound Cc1cccc(Cl)c1NC(=O)c1cnc(Nc2cc(N3CCOCC3)cc(N3CCOCC3)c2)s1 : > 8.09 µM

GET /value?item= COc1cc2c(cc1OC)C(CC1(O)CCCCC1)N(S(=O)(=O)c1ccc(C)cc1)CC2 (stereo not given) &field=TGI returns > 10 µM

Lab note: O=C(NCCCCCCNC(=O)n1cc(F)c(=O)[nH]c1=O)NCCCOCCOCCOCCOCCOCCOCCOCCOCCOCCOCCOCCOCCOCCOCCOCCOCCOCCOCCOCCOCCOCCCNC(=O)C(O)C(O)C(OC1OC(CO)C(O)C(O)C1O)C(O)CO (stereo not given) gave TGI of > 100 µM

The compound listed as CC(C)(c1ccc(Oc2ccc(C#N)c(C#N)c2)cc1)c1ccc(Oc2ccc(C#N)c(C#N)c2)cc1 has a reported TGI of > 100 µM

Briefly, TGI measured for O=c1oc2c/c(=C\c3ccccc3)c(=O)c3cccc1c3-2 : > 100 µM

GET /value?item= CC1=C(C(=O)Nc2ccc([N+](=O)[O-])cc2)C(c2ccccc2O)C(C(=O)Nc2ccc([N+](=O)[O-])cc2)=C(C)N1 &field=TGI returns 40.8 µM

# TGI (compound: O=C1OC(c2ccc(Cl)cc2)(c2ccc(Cl)cc2)c2c1ccc1ccccc21 ) is > 100 µM

----------
# Tested on: CCRF-CEM leukemia
# protocol.summary: NCI tumour cell line growth inhibition, 48 h; in the data active = GI50 below about 0.43 µM; inactive = the rest
Where a SMILES comes first, the peptide text is derived from it. The star is where a group is joined. OBn = c1ccc(CO*)cc1
Your answer must be one of the following: active, inactive

- molecule: "Nc1nc2ccc3[nH]ncc3c2c2c1CCCC2"
  class: "inactive"

Inquiry: What outcome does the record of this test show for Cn1c(/C=C(\C#N)c2cccc(C(F)(F)F)c2)nc2c(N3CCOCC3)nc(Cl)nc21 ?
Reply text: active

Inquiry: Just curious, what result did O=C(NCCN1CCC(O)CC1)c1cc2c(o1)C(=O)c1ccccc1C2=O get here?
Reply text: inactive

Inquiry: What call does the record list for O=C(O)CC(NC(=O)CP(=O)(O)O)C(=O)O.[NH-]C1CCCCC1[NH-].[Pt+2] (configuration not stated) ?
Reply text: inactive

Inquiry: Lab log entry: Cc1cc([N+](=O)[O-])ccc1NS(=O)(=O)c1cc(Cl)ccc1Cl — outcome as called in the assay?
Reply text: inactive

Inquiry: Dear all, I need the recorded test outcome for CC(=O)NC(C(=O)N1CCCC1C(=O)OCc1ccccc1)C(C)C (stereo not drawn) (Ac-Val-Pro-OBn; configuration not given here) , thank you.
Reply text: inactive

Inquiry: Identify the outcome logged in this assay for the molecule shown: COc1ccc2c(c1)c1nc3cc(C)c(C)cc3nc1n2CCN(C)C
Reply text: inactive
